Values compiled from patent US8722661B2.

- Test target: Tankyrase 1 (Homo sapiens, UniProt O95271)
- Sequence (O95271 whole entry): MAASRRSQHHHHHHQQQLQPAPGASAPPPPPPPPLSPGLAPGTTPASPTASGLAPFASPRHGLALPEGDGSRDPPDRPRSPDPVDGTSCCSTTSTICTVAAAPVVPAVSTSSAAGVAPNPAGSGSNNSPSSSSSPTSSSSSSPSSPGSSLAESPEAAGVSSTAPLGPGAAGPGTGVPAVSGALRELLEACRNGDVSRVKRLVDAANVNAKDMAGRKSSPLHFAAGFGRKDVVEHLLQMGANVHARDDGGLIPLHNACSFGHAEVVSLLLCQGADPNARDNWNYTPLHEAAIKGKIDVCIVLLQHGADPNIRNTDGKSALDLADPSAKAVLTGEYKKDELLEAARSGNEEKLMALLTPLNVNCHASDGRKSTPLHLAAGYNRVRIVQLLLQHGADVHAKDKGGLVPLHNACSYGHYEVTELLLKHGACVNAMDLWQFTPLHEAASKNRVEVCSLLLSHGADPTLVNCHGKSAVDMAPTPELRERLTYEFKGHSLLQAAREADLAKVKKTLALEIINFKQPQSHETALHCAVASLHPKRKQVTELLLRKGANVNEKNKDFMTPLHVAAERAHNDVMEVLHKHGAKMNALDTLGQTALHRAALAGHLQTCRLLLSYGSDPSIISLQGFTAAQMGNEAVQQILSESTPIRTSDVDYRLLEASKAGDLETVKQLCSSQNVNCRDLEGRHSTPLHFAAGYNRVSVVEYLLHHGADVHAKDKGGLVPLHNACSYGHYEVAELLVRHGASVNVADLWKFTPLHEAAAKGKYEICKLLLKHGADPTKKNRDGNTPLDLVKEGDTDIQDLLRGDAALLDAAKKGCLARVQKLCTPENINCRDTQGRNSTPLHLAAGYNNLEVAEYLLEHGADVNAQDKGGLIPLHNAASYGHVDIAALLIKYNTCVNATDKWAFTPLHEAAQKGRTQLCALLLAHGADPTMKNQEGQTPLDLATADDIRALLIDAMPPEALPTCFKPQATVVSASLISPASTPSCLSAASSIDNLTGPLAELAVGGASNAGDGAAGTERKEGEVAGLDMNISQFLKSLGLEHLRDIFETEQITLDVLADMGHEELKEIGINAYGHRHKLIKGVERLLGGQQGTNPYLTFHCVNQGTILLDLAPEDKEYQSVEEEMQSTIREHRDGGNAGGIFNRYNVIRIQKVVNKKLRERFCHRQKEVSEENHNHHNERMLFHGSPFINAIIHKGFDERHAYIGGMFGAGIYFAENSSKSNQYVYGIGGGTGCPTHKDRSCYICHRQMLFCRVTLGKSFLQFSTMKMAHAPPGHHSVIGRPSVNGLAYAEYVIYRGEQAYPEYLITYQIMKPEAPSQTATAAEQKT
Measured parameter: IC50
Record the result as a number with its unit.

[ask] Would you kindly share the measured IC50 for "COCCOc1cc(F)c(N2CCN(c3nc4c(ccn4CCO)c(=O)[nH]3)CC2)c(F)c1" ?
[reply] 9.67 nM

====

The compounds below have reported IC50 for PARP1 (His6-PARP1, full length) (Homo sapiens, UniProt P09874).
The response must be a number in nM with no trailing unit.

[ask] Entry under review: CN1CCN(c2nc3c(ccn3C)c(=O)[nH]2)CC1 [Example 11] . Reported IC50?
[reply] 471

[ask] Cool, now Cn1ccc2c(=O)[nH]c(N3CCN(c4ccc(C#N)cc4)CC3)nc21 [Example 22]
[reply] 453

[ask] Continue with Cn1ccc2c(=O)[nH]c(N3C[C@@H]4C[C@H]3CN4c3cccc(F)c3)nc21 [Example 33]
[reply] 1120

[ask] Also Cn1ccc2c(=O)[nH]c(N3CCN(c4ccc(C#N)cn4)CC3)nc21 [Example 32] , if possible.
[reply] 229

[ask] Please give the result for Cn1ccc2c(=O)[nH]c(N3CCN(c4ccccc4)CC3)nc21 [Example 29] too.
[reply] 732

[ask] O=c1[nH]c(-c2ccc(C(F)(F)F)cc2)nc2[nH]ccc12 [Example 37] , same question.
[reply] 1130

[ask] How about this compound: Cn1ccc2c(=O)[nH]c(N3CCN(c4ccc(Cl)cc4)CC3)nc21 [Example 3]
[reply] 1060

[ask] Then what about the compound Cn1ccc2c(=O)[nH]c(-c3ccc(C(F)(F)F)cc3)cc21 [Example 45] ?
[reply] 842

[ask] Entry to check: Cn1ccc2c(=O)[nH]c(N3CCC(c4ccccc4)C3)nc21 (stereo not shown) [Example 16]
[reply] 1260

[ask] Let us now turn to Cn1ccc2c(=O)[nH]c(N3CCN(c4ccc(S(C)(=O)=O)cc4F)CC3)nc21 [Example 24]
[reply] 1280
